MIC, Streptococcus pneumoniae ATCC 6303: measured values
Numbers only, in µg/mL.

Sample answers from the record:
{"molecule": "C[C@H]1CCc2c(N3CCC(O)CC3)c(F)cc3c(=O)c(C(=O)O)cn1c23 [S-(−)-Nadifloxacin]", "MIC, µg/mL": 0.2}
{"molecule": "C/C(=C\\C(=O)OCCCCCCCCC(=O)O)C[C@@H]1OC[C@H](C[C@@H]2O[C@H]2[C@@H](C)[C@H](C)O)[C@@H](O)[C@H]1O [Mupirocin]", "MIC, µg/mL": 0.2}
{"molecule": "C[C@H]1COc2c(N3CCN(C)CC3)c(F)cc3c(=O)c(C(=O)O)cn1c23 [Levofloxacin]", "MIC, µg/mL": 0.8}

Turning now to a further molecule:
Look up MIC with Streptococcus pneumoniae ATCC 6303 for this molecule: CC1CCc2c(N3CCC(O)CC3)c(F)cc3c(=O)c(C(=O)O)cn1c23 (racemic) [RS-(±)-Nadifloxacin]
0.4
